- System: Fyn (UniProt P06241)
- Sequence (P06241 whole entry, looked up): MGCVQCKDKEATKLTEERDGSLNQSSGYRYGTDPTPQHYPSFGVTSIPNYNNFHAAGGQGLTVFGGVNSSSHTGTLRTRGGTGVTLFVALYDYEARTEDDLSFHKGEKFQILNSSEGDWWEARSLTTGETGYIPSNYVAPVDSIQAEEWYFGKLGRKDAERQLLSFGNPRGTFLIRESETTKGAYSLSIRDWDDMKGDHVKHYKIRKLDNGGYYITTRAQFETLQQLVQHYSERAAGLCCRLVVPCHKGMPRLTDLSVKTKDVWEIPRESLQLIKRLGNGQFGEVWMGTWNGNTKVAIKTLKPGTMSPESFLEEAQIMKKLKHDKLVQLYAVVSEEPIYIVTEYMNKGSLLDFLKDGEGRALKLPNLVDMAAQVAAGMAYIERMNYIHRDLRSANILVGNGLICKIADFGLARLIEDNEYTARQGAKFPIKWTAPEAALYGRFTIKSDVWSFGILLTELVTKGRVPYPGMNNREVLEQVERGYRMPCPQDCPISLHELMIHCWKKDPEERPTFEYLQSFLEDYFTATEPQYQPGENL
- Assay Explanation: phosphorylation enrichment, bacterial display (enrichment ratio); higher = better substrate or ligand; peptides without Tyr show the background;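 further: 11-residue human phosphosite peptides and single-mutation variants displayed on the E. coli surface, counted by deep sequencing, each peptide's frequency after selection divided by its frequency in the unselected input library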;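 further: frequency after pTyr selection over input frequency; kinase dosed for 20-30% of maximal phosphorylation in three min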
Where phosphorylation enrichment equals or exceeds 0.5, the correct label is criterion met; where it does not, the label is criterion not met.

// query # bool: phosphorylation enrichment of FQKDVYDIPPS [NEDD9_Y177_YF] >= 0.5
// result criterion met

// query hey, is phosphorylation enrichment for this one >= 0.5? SHISGYATLRR [RAPH1_Y1226]
// result criterion not met

// query Assess whether reported phosphorylation enrichment for APSHAYHGGVL [ANO1_Y981] sits at 0.5 or higher.
// result criterion not met

// query # check: phosphorylation enrichment of QGGRCYMMIVD [GAA_Y438_R437C] is greater than or equal to 0.5
// result criterion met

// query Item NSFKYYMSDDI [ATRX_Y204_C200S] with phosphorylation enrichment of 0.5 or above?
// result criterion not met

// query Could you verify whether the entry LSEEKYELKEG [TREM1_Y29_T25S] shows phosphorylation enrichment of no less than 0.5?
// result criterion met

// query phosphorylation enrichment >= 0.5 for RESVSYLFSHV [PRPS1_Y311_G306R] ?
// result criterion met

// query Threshold query (phosphorylation enrichment >= 0.5) on FQCKHYACIRQ [TIMP3_Y182_S179C_YF]
// result criterion not met

// query Check this sequence for phosphorylation enrichment at or above 0.5: PKGIRYGQGAG [CSRP3_Y73_G72R]
// result criterion not met

// query Does the reported phosphorylation enrichment for LSSETYVKSYT [F5_Y2149_M2148T] fall at or above the 0.5 mark?
// result criterion met

// query Check if phosphorylation enrichment >= 0.5 (inclusive). Item: AVDDKYSRREE [SART1_Y685_I681V]
// result criterion met

// query Dear colleague, could you confirm whether RISPEYKQNEI [GJB1_Y243_L239I] has phosphorylation enrichment at or above 0.5?
// result criterion met

// query Reported phosphorylation enrichment reaches at least 0.5 for IVLEKYKLLPE [DHFR_Y157_D153V] ?
// result criterion not met

// query Given the entry SLALFYRKVYH [RBL1_Y792] , answer whether its phosphorylation enrichment meets or surpasses 0.5.
// result criterion not met

// query Is it the case that SSTASYFEAPG [RFX2_Y108] has phosphorylation enrichment reaching or exceeding 0.5?
// result criterion not met

// query Does phosphorylation enrichment meet or surpass 0.5 for NIKKEYTKMVQ [PMS2_Y181_A182T] ?
// result criterion not met

// query Is the recorded value of phosphorylation enrichment equal to or greater than 0.5 for this sequence? NKVKFYIPYMN [NCR1_Y84_D87Y]
// result criterion not met

// query In plain terms: is recorded phosphorylation enrichment at least 0.5 for GKANRYFSPNF [PTEN_Y336_D331G] ?
// result criterion not met

// query Determine whether measured phosphorylation enrichment meets or exceeds 0.5 for FRKNTYNVKST [SYNE2_Y575_I574T_YF]
// result criterion not met

// query Say whether PGPPGYCDSSH [COL12A1_Y3043_Q3048H] shows phosphorylation enrichment of 0.5 or more.
// result criterion not met

// query Is phosphorylation enrichment at least 0.5? Consider CTTIHYNFMCF [TP53_Y234_N239Y_YF]
// result criterion not met

// query I'd appreciate it if you could say whether PLCPDYQEPSR [DDR2_Y481_R478C] has phosphorylation enrichment at least equal to 0.5.
// result criterion met

// query Can FSMGCYEISLE [HMGCL_Y198_G203E_YF] be said to have phosphorylation enrichment at or above 0.5?
// result criterion met

// query # check: phosphorylation enrichment of IGEGTYGVLFK [CDK2_Y15_V18L_YF] is greater than or equal to 0.5
// result criterion met

// query Quick check, phosphorylation enrichment >= 0.5? NKVKFYIPFMN [NCR1_Y84_D87Y_YF]
// result criterion not met

// query Identify whether the reported phosphorylation enrichment of the following sequence is 0.5 or greater: VLSIDYYFPPQ [AR_Y552_P549S]
// result criterion met

// query Hello, I need to know if VVKLAYNENDN [CAMKK2_Y183] has measured phosphorylation enrichment not below 0.5. Thanks!
// result criterion not met

// query Is it the case that DFGSGYPNDPK [RNASEH2A_Y210_YF] has phosphorylation enrichment reaching or exceeding 0.5?
// result criterion not met

// query # bool: phosphorylation enrichment of PVLSLYASGRT [ACTA1_Y145_A140P] >= 0.5
// result criterion met

// query hey, is phosphorylation enrichment for this one >= 0.5? VFAANYFKLLG [ROR2_Y645_D644N_YF]
// result criterion met

// query Answer whether phosphorylation enrichment of CTTIRYNYMCN [TP53_Y234_H233R] is greater than or equal to 0.5.
// result criterion not met

// query Determine whether measured phosphorylation enrichment meets or exceeds 0.5 for TSIGNYFKPWF [DHCR24_Y299_N294T_YF]
// result criterion not met

// query Dear colleague, could you confirm whether TVEDHDFEGGI [TKT_Y563_Y563D_YF] has phosphorylation enrichment at or above 0.5?
// result criterion met

// query Quick check, phosphorylation enrichment >= 0.5? ENGPFYASFPP [GDAP2_Y488_T489A_YF]
// result criterion met

// query Identify whether the reported phosphorylation enrichment of the following sequence is 0.5 or greater: FSKTQYNQVPR [CXADR_Y318_S323R_YF]
// result criterion not met

// query Record DDEVFYSPRSL [OTC_Y317] ; criterion: phosphorylation enrichment no lower than 0.5. Met?
// result criterion met

// query Hi, just wondering whether SEDSEYFRAFE [CASQ2_Y178_K180R_YF] shows phosphorylation enrichment of 0.5 or higher.
// result criterion met

// query Could you verify whether the entry SLFNGYVFSGV [NEIL3_Y71_YF] shows phosphorylation enrichment of no less than 0.5?
// result criterion not met

// query Given PLDGEYFSLQI [TP53_Y327_T329S] , state whether its phosphorylation enrichment is at least 0.5.
// result criterion met

// query Identify whether the reported phosphorylation enrichment of the following sequence is 0.5 or greater: ADRARYSAFGG [RBM4_Y361]
// result criterion not met

// query hey, is phosphorylation enrichment for this one >= 0.5? KLASTYREAAT [DEAF1_Y483_H479L]
// result criterion not met

// query Confirm if phosphorylation enrichment reported for the sequence EDKFMYLEFPQ [PTEN_Y240_F241L] is 0.5 or above.
// result criterion met

// query Please check the record QTEAQYRFIFM [PTPN11_Y511_YF] and state if its phosphorylation enrichment is at or above 0.5.
// result criterion met

// query Does the sequence LDTIQYSKHPP [SQSTM1_Y433] have recorded phosphorylation enrichment that is 0.5 or more?
// result criterion met

// query Threshold query (phosphorylation enrichment >= 0.5) on RHFTGCRIELQ [INSR_Y818_Y818C]
// result criterion not met

// query Does phosphorylation enrichment meet or surpass 0.5 for PLQKTYNYNML [SLC4A1_Y553_V557M] ?
// result criterion not met

// query Record GFCSWYRGWAP [TIMP3_Y195_YF] ; criterion: phosphorylation enrichment no lower than 0.5. Met?
// result criterion not met

// query Identify whether the reported phosphorylation enrichment of the following sequence is 0.5 or greater: TLARLYHRDST [LRIG1_Y1029_P1031R]
// result criterion met

// query # bool: phosphorylation enrichment of LSQAKYQIRFR [CRLF1_Y272_F268S_YF] >= 0.5
// result criterion met

// query Decide: is the reported value of phosphorylation enrichment for ESAAIYNPVIY [RHO_Y301_K296E] equal to or greater than 0.5?
// result criterion met

// query Reported phosphorylation enrichment at or above 0.5? HAVYVCDICHV [TWNK_Y508_Y508C]
// result criterion met

// query Hi team, for TINPIHEHVGY [CHN1_Y143_Y143H] , is the recorded phosphorylation enrichment at or above 0.5?
// result criterion not met
